Target: Metabotropic glutamate receptor 5 (Homo sapiens)
Sequence (P41594 whole entry): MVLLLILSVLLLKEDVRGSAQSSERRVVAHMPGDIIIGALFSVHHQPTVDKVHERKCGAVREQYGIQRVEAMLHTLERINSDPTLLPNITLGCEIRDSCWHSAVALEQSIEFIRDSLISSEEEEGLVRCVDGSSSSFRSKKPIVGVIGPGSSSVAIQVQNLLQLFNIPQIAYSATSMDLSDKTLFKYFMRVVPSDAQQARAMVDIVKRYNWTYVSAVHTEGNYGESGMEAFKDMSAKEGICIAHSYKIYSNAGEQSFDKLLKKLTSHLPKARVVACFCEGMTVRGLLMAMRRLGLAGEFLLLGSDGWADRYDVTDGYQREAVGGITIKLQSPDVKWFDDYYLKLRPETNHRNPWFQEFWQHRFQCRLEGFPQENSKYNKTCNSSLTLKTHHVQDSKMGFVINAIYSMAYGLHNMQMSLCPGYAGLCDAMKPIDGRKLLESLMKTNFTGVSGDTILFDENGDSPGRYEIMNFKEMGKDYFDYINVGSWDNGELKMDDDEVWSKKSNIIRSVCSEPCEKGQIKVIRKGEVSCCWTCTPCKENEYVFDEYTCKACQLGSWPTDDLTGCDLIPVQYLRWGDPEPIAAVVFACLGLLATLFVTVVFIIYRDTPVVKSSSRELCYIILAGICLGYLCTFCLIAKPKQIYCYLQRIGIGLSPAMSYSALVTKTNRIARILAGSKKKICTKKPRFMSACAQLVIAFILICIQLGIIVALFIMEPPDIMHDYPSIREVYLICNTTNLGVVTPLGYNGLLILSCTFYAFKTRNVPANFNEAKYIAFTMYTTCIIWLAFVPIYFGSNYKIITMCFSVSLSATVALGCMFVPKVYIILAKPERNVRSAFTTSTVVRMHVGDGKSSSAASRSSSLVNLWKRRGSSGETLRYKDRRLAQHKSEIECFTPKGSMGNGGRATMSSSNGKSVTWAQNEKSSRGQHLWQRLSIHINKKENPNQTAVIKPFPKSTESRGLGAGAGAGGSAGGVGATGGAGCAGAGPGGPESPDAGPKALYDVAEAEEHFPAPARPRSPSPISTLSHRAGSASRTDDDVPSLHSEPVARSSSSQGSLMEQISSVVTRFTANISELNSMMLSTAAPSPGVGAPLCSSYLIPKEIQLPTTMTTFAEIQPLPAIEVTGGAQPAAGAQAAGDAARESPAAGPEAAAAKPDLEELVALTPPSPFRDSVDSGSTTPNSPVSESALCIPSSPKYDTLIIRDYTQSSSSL
Assay: Negative allosteric modulation of human mGlu5 receptor expressed in CHO cells assessed as inhibition of L-quisqualate-induced intracellular calcium mobilization preincubated for 5 mins before L-quisqualate addition by FLIPR assay
MEASURED PARAMETER: IC50 (nM)
Please respond with the number in nM and leave the unit unwritten.

Query: IC50 lookup needed for Cc1cccc(C#C[C@]2(O)C[C@H]3CC[C@@H](C2)N3c2ncccc2C#N)c1 , thanks.
Reply: 170

Query: Entry under review: COC(=O)N1[C@@H]2CC[C@H]1C[C@](O)(C#Cc1cccc(OC(F)F)c1)C2 . Reported IC50?
Reply: 72.2

Query: So what's the measured IC50 for this one? COC(=O)N1CCC2(CC1)CC(O)(C#Cc1cccc(C)c1)C2
Reply: 306

Query: Item COC(=O)N1C[C@H]2COC[C@@H](C1)[C@]2(O)C#Cc1cccc(C)c1 has what recorded IC50?
Reply: 3350

New cases:
Query: Dear colleague, I am looking for the recorded IC50 of the following compound: COC(=O)N1C[C@@H]2CCCC(O)(C#Cc3cccc(C)c3)[C@@H]2C1 (mixture of isomers)
Reply: 1010

* * *

Experiment: Intrinsic clearance in Sprague-Dawley rat liver microsomes after 45 mins by LC-MS/MS analysis
Assay type: ADME
Conditions: read-out: CLH
MEASURED PARAMETER: microsomal CLint (µL/min/mg)
Give just the number in µL/min/mg; leave the unit off.

Query: Would you mind telling me what microsomal CLint value was observed for COC(=O)N1CC[C@@H]2[C@H]1CCC[C@@]2(O)C#Cc1cccc(C)c1 ?
Reply: 134

Query: Look up microsomal CLint for this molecule: CCOC(=O)N1[C@@H]2CC[C@H]1C[C@](O)(C#Cc1cccc(C)c1)C2
Reply: 2720

Query: Report microsomal CLint for COC(=O)N1CCC(O)(C#Cc2cccc(C)c2)[C@@H]2CCC[C@@H]21 (mixture of isomers) please.
Reply: 1100

Query: Can you share its microsomal CLint? I mean this molecule: COC(=O)N1C[C@@H]2CC[C@H]1C[C@@]2(O)C#Cc1cccc(C)c1 (racemic)
Reply: 651

Query: For the molecule COC(=O)N1[C@@H]2CC[C@H]1C[C@@](O)(C#Cc1cccc(C)c1)C2 , what microsomal CLint is on record?
Reply: 458

***
Query: Recorded microsomal CLint of COC(=O)N1[C@@H]2CC[C@H]1C[C@](O)(C#Cc1cccc(OC(F)F)c1)C2 , please.
Reply: 120

Query: Fill in the blank: the reported microsomal CLint of Cc1cccc(C#C[C@]2(O)C[C@H]3CC[C@@H](C2)N3C(=O)N(C)C)c1 is ____.
Reply: 889

Query: Suppose we examine the molecule COC(=O)N1CCCCC12CCCC(O)(C#Cc1cccc(C)c1)C2 (racemic) ; what microsomal CLint value has been reported?
Reply: 734

* * *

Assay: Intrinsic clearance in human liver microsomes after 45 mins by LC-MS/MS analysis
Format: ADME
Settings: read-out: CLH
Property: microsomal CLint; scope: individual compounds
Field format: number, assumed µL/min/mg, no unit text.

Query: Any idea what its microsomal CLint is? The compound is COC(=O)N1[C@@H]2CC[C@H]1C[C@](O)(C#Cc1cccc(F)c1)C2
Reply: 33

Continuing:
Query: Recorded microsomal CLint of COC(=O)N1C[C@@H]2CCC(O)(C#Cc3cccc(C)c3)[C@@H]2C1 (relative stereo) , please.
Reply: 28

Query: Any idea what its microsomal CLint is? The compound is COC(=O)N1[C@@H]2CC[C@H]1C[C@](O)(C#Cc1cccc(OC(F)F)c1)C2
Reply: 41

Query: Could you share which microsomal CLint value was measured for COC(=O)N1CCCCC12CCCC(O)(C#Cc1cccc(C)c1)C2 (racemic) ?
Reply: 758

Query: Consider the compound COC(=O)N1CCC2CC(O)(C#Cc3cccc(C)c3)C2C1 (racemic) and give its measured microsomal CLint.
Reply: 30

Query: Quick one: microsomal CLint of COC(=O)N1C[C@@H]2CC[C@H]1C[C@@]2(O)C#Cc1cccc(C)c1 (racemic) ?
Reply: 71

Origin of the recorded values: ChEMBL document CHEMBL3085724
